Assay: Sirolimus whole blood pharmacokinetics
Assay type: in vivo, human
Settings: human, whole blood, oral, 1 mg, Cmax, sirolimus 1 mg, with ketoconazole, n=6
Measure Name: Cmax (ng/mL)
Report the value in ng/mL with no unit label.

For reference, reported Cmax for `CO[C@H]1C[C@@H]2CC[C@@H](C)[C@@](O)(O2)C(=O)C(=O)N2CCCC[C@H]2C(=O)O[C@H]([C@H](C)C[C@@H]2CC[C@@H](O)[C@H](OC)C2)CC(=O)[C@H](C)/C=C(\C)[C@@H](O)[C@@H](OC)C(=O)[C@H](C)C[C@H](C)/C=C/C=C/C=C/1C` stands at 25.4

* * *

Assay: Sirolimus whole blood pharmacokinetics
Assay type: in vivo, human
Conditions: human, whole blood, oral, 30 mg, AUC [SD], sirolimus alone study, 24 hours apart (total 60 mg), N=3, mean
Measure Name: AUC (ng·h/mL)
Report the value in ng·h/mL with no unit label.

For reference, reported AUC for `CO[C@H]1C[C@@H]2CC[C@@H](C)[C@@](O)(O2)C(=O)C(=O)N2CCCC[C@H]2C(=O)O[C@H]([C@H](C)C[C@@H]2CC[C@@H](O)[C@H](OC)C2)CC(=O)[C@H](C)/C=C(\C)[C@@H](O)[C@@H](OC)C(=O)[C@H](C)C[C@H](C)/C=C/C=C/C=C/1C` stands at 3680

The reported measurements were obtained from paper PMC4410974.
